meta.source: ChEMBL document CHEMBL5058577

# Test system: HEK-293T
# assay comment: Multiplex assay against HEK293T
# Assay type: toxicity, cell-based
# condition description: human, 48 h, 10 µM, compound concentration 10 uM, replicate 2
endpoint name: Population Mitochondria Different-Phenotype (%)

| mol | readout value |
| --- | --- |
| CCCCC(=O)N(Cc1ccc(-c2ccccc2-c2nnn[nH]2)cc1)[C@H](C(=O)O)C(C)C | 17 |
| N#Cc1cc(F)cc(-c2nc(-c3ccc(F)cn3)no2)c1 | 22 |
| CC(C)COc1ccc(CNC(=O)N(Cc2ccc(F)cc2)C2CCN(C)CC2)cc1 | 92 |
| CN[C@@H](C)C(=O)N[C@H](C(=O)N1CCC[C@H]1C(=O)Nc1snnc1-c1ccccc1)C1CCCCC1 | 76 |
| O=C(CCCc1ccccc1)Nc1nc2ccccc2c(=O)s1 | 30 |

---

# System: U2OS
# assay comment: Multiplex assay against U2OS
# Format: toxicity, cell-based
# condition description: human, 12 h, 1 µM, compound concentration 1 uM, replicate 2
Examples of molecules with documented Population Mitochondria Different-Phenotype (%) follow.
endpoint name: Population Mitochondria Different-Phenotype (%)

| molecule | readout value |
| --- | --- |
| CCCCCC(O)/C=C/[C@H]1C(=O)CC(O)C1C/C=C\CCCC(=O)O (stereo not given in full) | 6% |
| CN(C)C(=O)Cn1cc(-c2ccc(-c3cncc4ccccc34)cc2)cn1 | 2% |
| O=C1[C@H](Cc2ccc(O)cc2)N2C(=O)CCN(C(=O)NCc3ccccc3)[C@H]2CN1Cc1cccc2ccccc12 | 8% |
| Cc1noc(-c2ccc(-c3ccc(CC(=O)O)cc3)cc2)c1NC(=O)O[C@H](C)c1ccccc1Cl | 2% |
| CN1CCN(c2cc(-c3ccccc3)nc(N)n2)CC1 | 5% |

---

# Tested on: U2OS
# assay comment: Multiplex assay against U2OS
# Format: toxicity, cell-based
# condition description: human, 12 h, 1 µM, compound concentration 1 uM, replicate 2
endpoint name: Population Tubulin-Different-Phenotype (%)

| compound | measure unit | readout value |
| --- | --- | --- |
| CN[C@@H](C)C(=O)N[C@H](C(=O)N1CCC[C@H]1C(=O)Nc1snnc1-c1ccccc1)C1CCCCC1 [GDC-0152] | % | 52 |
| Cl.N=C(N)NC(=O)Cc1c(Cl)cccc1Cl [GUANFACINE HYDROCHLORIDE] | % | 6 |
| COc1ccccc1N1CCN(C[C@@H](C(=O)NC(C)(C)C)c2ccccc2)CC1.Cl.Cl | % | 3 |
| CN1CCN(c2cc(-c3ccccc3)nc(N)n2)CC1 | % | 11 |
| CC(=O)Nc1cccc2c1c(Sc1ccc(Cl)cc1)c(C)n2CC(=O)O [AZD1981] | % | 3 |
| Cc1onc(-c2ccccc2Cl)c1C(=O)N(C)c1ccc(Cl)cc1 | % | 3 |
| CC(/C=C1\SC(=S)N(CCCC(=O)Nc2ccc(C(=O)O)c(O)c2)C1=O)=C\c1ccccc1 | % | 0 |
| CN(C)C(=O)Cn1cc(-c2ccc(-c3cncc4ccccc34)cc2)cn1 | % | 3 |

---

Population Membrane Permeable-Phenotype (%) listing for selected compounds.
# Test system: Fibroblast
# assay comment: Multiplex assay against human fibroblast
# Format: toxicity, cell-based
# condition description: 12 h, 1 µM, compound concentration 1 uM, replicate 1
endpoint name: Population Membrane Permeable-Phenotype (%)

| compound | system under test | readout value |
| --- | --- | --- |
| C[C@H](N)COC(=O)[C@@H](CCCCN)NC(=O)Cc1c(-c2ccc3ccccc3c2)[nH]c2c1ccc1ccccc12 | Fibroblast | 0 |
| CC[C@@H](C)Nc1nc(C)nc2c(-c3ccc(OC)nc3C)c(C)nn12 [PEXACERFONT] | Fibroblast | 2 |
| COC[C@@H](c1ccc(C(F)(F)F)cc1)N1CCN(C2(C)CCN(C(=O)c3c(C)ncnc3C)CC2)C[C@@H]1C.O=C(O)/C=C\C(=O)O [VICRIVIROC MALEATE] | Fibroblast | 2 |
| CN[C@@H](C)C(=O)N[C@H](C(=O)N1CCC[C@H]1C(=O)Nc1snnc1-c1ccccc1)C1CCCCC1 [GDC-0152] | Fibroblast | 1 |
| O=C1[C@H](Cc2ccc(O)cc2)N2C(=O)CCN(C(=O)NCc3ccccc3)[C@H]2CN1Cc1cccc2ccccc12 | Fibroblast | 0 |
| CC(/C=C1\SC(=S)N(CCCC(=O)Nc2ccc(C(=O)O)c(O)c2)C1=O)=C\c1ccccc1 | Fibroblast | 0 |
| COc1cccc2c1c(NS(=O)(=O)c1ccc(Cl)s1)nn2Cc1cccc(CNC(=O)C(C)(C)O)c1 | Fibroblast | 1 |
